System: MS2 coat protein
assay_protocol: apparent KD of MS2 coat protein; designed switch direction (-1 OFF switch, 1 ON switch): -1; higher = weaker reporter binding
settings: Eterna round: R95; input ligand: microRNA oligo, concentration not stated
parameter_measured: apparent KD of MS2 coat protein (nM)
Numbers only, in nM.

Known results for sequences:
* AAGAAGAUAGGAUAUACGAGGAGAGGAGAGAGAAGGUGAGGACAUGAGGAUCACCCAUGUAGAAGGAUCAGGAA [JR_Exclu2_Sub064] (puzzle: Exclusion 2) | 88
* UUUUAACAUGAGGAUCACCCAUGUGAGGAUAUCGUUUUUUAUAUUAAUAUUAAUAAAACGAGAAGGCACAUUUU [JMF 10] (puzzle: Exclusion 1) | 121

-- ask What does the data say about its apparent KD of MS2 coat protein? Entry: GUGUACAGAGGAUAUGCACGAGGAGUUACGAAAGUAACUUCACAUGAGGAUCACCCAUGUAGAAGGCUGUACAC [Dot plot directed v5] (puzzle: Exclusion 2)
-- reply 13.9
